# Target or test system: T1, BCMA (Homo sapiens (Human), UniProt Q02223 1-54, limits assumed)
# T1 sequence: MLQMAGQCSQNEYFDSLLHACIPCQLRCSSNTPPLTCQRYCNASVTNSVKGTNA
# Assay: ELISA, format not described
# Design: unit not given here

Binder | ELISA_avg
D-domain SEQ ID NO: 145 (designed binder) MGSWEEFYGRLSAIQDRLWALGGSEAELAAFEKEIAAFESELQAYKGKGNPEVEWLRMHAAVIRRALQAYRHN | 3.28
D-domain SEQ ID NO: 97 (designed binder) MGSWVEFEERLAAIATRLHALGGSEAELAAFEKEIAAFESELQAYKGKGNPEVEELRWRAAIIRVYLQAYRHN | 16.3
D-domain SEQ ID NO: 313 (designed binder) MGSWGYFKHGLAHIKSSLEALGGSEAELADFEVWIAAFENELQEYKGKGNPEVEALRKEAAAIRDELQAYRHN | 18.5
D-domain SEQ ID NO: 55 (designed binder) MGSWVEFSWRLEAIRQRLTALGGSEAELAAFEKEIAAFESELQAYKGKGNPEVEDLRKYAARIRGELQAYRHN | 21.3
D-domain SEQ ID NO: 257 (designed binder) MGSWNDFKYRLAIIKYYLEALGGSEAELAHFESYIASFEHDLQNYKGKGNPEVEALRKEAAAIRDELQAYRHN | 15.1
D-domain SEQ ID NO: 193 (designed binder) MGSWVEFWDRLGAIRERLEALGGSEAELAAFEKEIAAFESELQAYKGKGNPEVEKLRYVAAVIRHRLQAYRHN | 4.18
D-domain SEQ ID NO: 299 (designed binder) MGSWSYFKFGLAHIKLRLEALGGSEAELADFEQWIASFEEQLQTYKGKGNPEVEALRKEAAAIRDELQAYRHN | 18.4
